- TARGET SYSTEM: Abf1 (UniProt P14164)
- Sequence: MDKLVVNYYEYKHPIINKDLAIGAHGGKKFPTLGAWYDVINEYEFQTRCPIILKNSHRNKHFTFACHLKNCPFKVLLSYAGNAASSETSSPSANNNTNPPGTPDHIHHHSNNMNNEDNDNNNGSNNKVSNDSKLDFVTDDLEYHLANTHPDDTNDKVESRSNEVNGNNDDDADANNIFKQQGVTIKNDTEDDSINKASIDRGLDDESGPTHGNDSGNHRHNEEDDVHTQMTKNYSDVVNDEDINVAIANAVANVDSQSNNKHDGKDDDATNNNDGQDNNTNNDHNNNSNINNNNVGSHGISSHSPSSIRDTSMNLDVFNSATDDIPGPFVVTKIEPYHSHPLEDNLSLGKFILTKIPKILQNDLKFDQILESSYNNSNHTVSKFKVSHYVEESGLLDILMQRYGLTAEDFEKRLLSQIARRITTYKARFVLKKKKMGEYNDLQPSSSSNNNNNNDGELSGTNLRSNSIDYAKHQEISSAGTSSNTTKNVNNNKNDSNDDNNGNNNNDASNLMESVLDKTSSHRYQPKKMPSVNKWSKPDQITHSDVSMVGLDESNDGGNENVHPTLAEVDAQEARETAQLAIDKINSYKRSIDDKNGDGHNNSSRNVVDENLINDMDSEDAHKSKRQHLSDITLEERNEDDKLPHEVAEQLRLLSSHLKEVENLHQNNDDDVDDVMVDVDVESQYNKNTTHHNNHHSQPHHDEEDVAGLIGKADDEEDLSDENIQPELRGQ
- PROCEDURE TEXT: PBM E-score (8-mer binding enrichment) (E-score (-0.5 to 0.5)); higher = stronger / more preferred TF binding
- ASSAY CONTEXT: protein concentration: 200 nM; construct: GST-full length
In all, about 33,000 sequences were measured (“E-score (-0.5 to 0.5)”: median about -0.015, highest 2% from about 0.3 on). The sample as a whole holds a higher share of the highest values than the screen did.
ASSAY READOUT: PBM E-score
Numbers only.

Here's what some known entries look like.
[[record]]
residue_codes = "AGGTGACC"
measured = 0.14

[[record]]
residue_codes = "ACTTTGTC"
measured = 0.217

[[record]]
residue_codes = "CAATATTA"
measured = 0.271

[[record]]
residue_codes = "GATGATAC"
measured = 0.297

[[record]]
residue_codes = "ACGAAACT"
measured = 0.336

[[record]]
residue_codes = "CAGCTTTC"
measured = -0.00915

[[record]]
residue_codes = "ATGCACGA"
measured = 0.362

[[record]]
residue_codes = "CGTGCGAG"
measured = 0.137

[[record]]
residue_codes = "ACTAGAAA"
measured = -0.0186

[[record]]
residue_codes = "ACGAAGAT"
measured = 0.284


Below are some sequences; for each one, tell me its PBM E-score.
1. CTTCGTAC
2. GAGTGATA
3. AAGTGAGA

Output line:
1. 0.414
2. 0.424
3. 0.0815

---

- TARGET SYSTEM: Abf1 (UniProt P14164)
- Sequence: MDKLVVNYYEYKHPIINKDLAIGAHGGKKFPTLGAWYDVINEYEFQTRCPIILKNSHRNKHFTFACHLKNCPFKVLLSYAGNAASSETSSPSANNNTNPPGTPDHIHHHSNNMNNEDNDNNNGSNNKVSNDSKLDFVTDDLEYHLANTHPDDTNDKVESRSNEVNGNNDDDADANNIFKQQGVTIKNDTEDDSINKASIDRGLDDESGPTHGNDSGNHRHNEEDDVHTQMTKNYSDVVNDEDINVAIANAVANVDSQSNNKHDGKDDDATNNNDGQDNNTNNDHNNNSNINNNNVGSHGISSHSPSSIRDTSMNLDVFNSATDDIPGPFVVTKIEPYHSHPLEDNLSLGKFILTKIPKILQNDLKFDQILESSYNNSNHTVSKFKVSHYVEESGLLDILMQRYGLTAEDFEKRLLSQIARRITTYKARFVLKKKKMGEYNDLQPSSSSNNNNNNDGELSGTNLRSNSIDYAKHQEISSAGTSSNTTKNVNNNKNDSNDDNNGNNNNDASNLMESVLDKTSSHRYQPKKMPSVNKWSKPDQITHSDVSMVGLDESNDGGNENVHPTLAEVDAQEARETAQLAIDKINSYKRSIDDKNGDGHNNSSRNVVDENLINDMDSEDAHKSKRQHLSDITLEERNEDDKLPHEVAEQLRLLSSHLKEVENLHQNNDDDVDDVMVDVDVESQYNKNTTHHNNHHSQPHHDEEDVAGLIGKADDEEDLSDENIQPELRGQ
- PROCEDURE TEXT: PBM E-score (8-mer binding enrichment) (E-score (-0.5 to 0.5)); higher = stronger / more preferred TF binding
- ASSAY CONTEXT: protein concentration: 200 nM; construct: GST-full length
The full ranking holds about 33,000 sequences; the median of “E-score (-0.5 to 0.5)” is about -0.015, and the highest 2% start at about 0.3. The entries come from a sample that favours the highest values as a whole.
Criterion: PBM E-score meeting or surpassing 0.2. Met: true (1). Not met: false (0).

Solved cases (10 shown):
[[record]]
residue_codes = "ACAAAGTC"
target_system = "Abf1 (UniProt P14164)"
category_label = "false (0)"

[[record]]
residue_codes = "AGTATTGA"
target_system = "Abf1 (UniProt P14164)"
category_label = "false (0)"

[[record]]
residue_codes = "CCATTCGG"
target_system = "Abf1 (UniProt P14164)"
category_label = "false (0)"

[[record]]
residue_codes = "ATGCTAAA"
target_system = "Abf1 (UniProt P14164)"
category_label = "false (0)"

[[record]]
residue_codes = "CGGTACAA"
target_system = "Abf1 (UniProt P14164)"
category_label = "true (1)"

[[record]]
residue_codes = "AGTATTTC"
target_system = "Abf1 (UniProt P14164)"
category_label = "true (1)"

[[record]]
residue_codes = "CGAAGTGA"
target_system = "Abf1 (UniProt P14164)"
category_label = "true (1)"

[[record]]
residue_codes = "CGTATTGA"
target_system = "Abf1 (UniProt P14164)"
category_label = "true (1)"

[[record]]
residue_codes = "CCGTACAA"
target_system = "Abf1 (UniProt P14164)"
category_label = "true (1)"

[[record]]
residue_codes = "CCGTACAC"
target_system = "Abf1 (UniProt P14164)"
category_label = "true (1)"


Input line: # bool: PBM E-score of GGGCTATA >= 0.2
Output line: false (0)

Input line: Note, next up: CGTATTTC
Output line: true (1)

Input line: Note, next up: ACATCACC
Output line: true (1)

Input line: Note, next up: AAGGAACC
Output line: false (0)

Input line: Note, next up: GATGCCAC
Output line: false (0)

Input line: Note, next up: CGGCGTCA
Output line: false (0)

Input line: Note, next up: ACAGCTCT
Output line: false (0)

Input line: Note, next up: ACATCACG
Output line: true (1)

Input line: Note, next up: GCCATGAA
Output line: false (0)

Input line: Note, next up: CTTTGCAC
Output line: true (1)

Input line: Note, next up: CTAAGTGA
Output line: true (1)

Input line: Note, next up: GGTATTTA
Output line: false (0)

---

- TARGET SYSTEM: Abf1 (UniProt P14164)
- Sequence: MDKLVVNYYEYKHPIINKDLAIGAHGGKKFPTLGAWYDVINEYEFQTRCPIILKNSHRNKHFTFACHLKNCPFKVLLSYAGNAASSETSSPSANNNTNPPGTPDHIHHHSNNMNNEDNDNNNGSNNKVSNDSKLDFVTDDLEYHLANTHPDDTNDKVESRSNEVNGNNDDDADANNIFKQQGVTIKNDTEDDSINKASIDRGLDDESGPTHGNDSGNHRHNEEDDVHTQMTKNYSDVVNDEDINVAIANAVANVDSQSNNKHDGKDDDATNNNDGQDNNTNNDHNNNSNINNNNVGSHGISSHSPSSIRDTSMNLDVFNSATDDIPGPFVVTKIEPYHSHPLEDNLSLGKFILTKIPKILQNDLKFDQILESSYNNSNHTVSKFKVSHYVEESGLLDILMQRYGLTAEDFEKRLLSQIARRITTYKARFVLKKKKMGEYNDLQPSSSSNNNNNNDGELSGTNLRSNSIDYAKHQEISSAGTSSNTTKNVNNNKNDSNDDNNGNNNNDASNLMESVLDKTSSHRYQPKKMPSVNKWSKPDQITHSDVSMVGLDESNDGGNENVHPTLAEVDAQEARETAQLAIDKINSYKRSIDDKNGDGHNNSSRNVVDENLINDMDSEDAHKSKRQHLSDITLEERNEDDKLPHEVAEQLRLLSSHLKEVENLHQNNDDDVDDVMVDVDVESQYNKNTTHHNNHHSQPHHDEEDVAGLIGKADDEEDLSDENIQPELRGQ
- PROCEDURE TEXT: PBM E-score (8-mer binding enrichment) (E-score (-0.5 to 0.5)); higher = stronger / more preferred TF binding
- ASSAY CONTEXT: protein concentration: 200 nM; construct: GST-full length
Over roughly 33,000 sequences, “E-score (-0.5 to 0.5)” has its median near -0.015; the highest 2% begin near 0.3. For the sample, the highest values were picked, then their nearest neighbours and some sequences at random.
Exercise: state measured PBM E-score for each of the sequences provided.
Give bare numbers.

Here's what some known entries look like.
[[record]]
residue_codes = "AAATGACG"
measured = 0.187

[[record]]
residue_codes = "CGTTCGTA"
measured = 0.345

[[record]]
residue_codes = "CGTTCGAA"
measured = 0.311

[[record]]
residue_codes = "CGTTCGTC"
measured = 0.358

[[record]]
residue_codes = "CGTTCGAC"
measured = 0.122

[[record]]
residue_codes = "ACGTCACT"
measured = 0.39

[[record]]
residue_codes = "AGTTCGTA"
measured = 0.264

[[record]]
residue_codes = "AGTTCGGG"
measured = 0.0167


Below are some sequences; for each one, tell me its PBM E-score.
1. AAATGACC
2. AAATGACA
3. GAATGACA
4. ACGTCACC
5. CAATGACA
6. ACGTCACA

Output line:
1. 0.215
2. 0.358
3. 0.311
4. 0.22
5. 0.214
6. 0.0823

Below are some sequences; for each one, tell me its PBM E-score.
1. CGTTCGGC
2. GAATGACC
3. TCAGTCCA
4. ATTTATAA
5. ATTTATCA
6. ACCACCTA
7. AGTTCGTC
8. AACACAAC

Output line:
1: 0.0205; 2: 0.0136; 3: -0.171; 4: 0.176; 5: 0.314; 6: -0.168; 7: 0.164; 8: -0.029
